Target Of Assay: Receptor tyrosine-protein kinase erbB-2 (Homo sapiens, UniProt P04626)
Sequence (P04626 whole entry): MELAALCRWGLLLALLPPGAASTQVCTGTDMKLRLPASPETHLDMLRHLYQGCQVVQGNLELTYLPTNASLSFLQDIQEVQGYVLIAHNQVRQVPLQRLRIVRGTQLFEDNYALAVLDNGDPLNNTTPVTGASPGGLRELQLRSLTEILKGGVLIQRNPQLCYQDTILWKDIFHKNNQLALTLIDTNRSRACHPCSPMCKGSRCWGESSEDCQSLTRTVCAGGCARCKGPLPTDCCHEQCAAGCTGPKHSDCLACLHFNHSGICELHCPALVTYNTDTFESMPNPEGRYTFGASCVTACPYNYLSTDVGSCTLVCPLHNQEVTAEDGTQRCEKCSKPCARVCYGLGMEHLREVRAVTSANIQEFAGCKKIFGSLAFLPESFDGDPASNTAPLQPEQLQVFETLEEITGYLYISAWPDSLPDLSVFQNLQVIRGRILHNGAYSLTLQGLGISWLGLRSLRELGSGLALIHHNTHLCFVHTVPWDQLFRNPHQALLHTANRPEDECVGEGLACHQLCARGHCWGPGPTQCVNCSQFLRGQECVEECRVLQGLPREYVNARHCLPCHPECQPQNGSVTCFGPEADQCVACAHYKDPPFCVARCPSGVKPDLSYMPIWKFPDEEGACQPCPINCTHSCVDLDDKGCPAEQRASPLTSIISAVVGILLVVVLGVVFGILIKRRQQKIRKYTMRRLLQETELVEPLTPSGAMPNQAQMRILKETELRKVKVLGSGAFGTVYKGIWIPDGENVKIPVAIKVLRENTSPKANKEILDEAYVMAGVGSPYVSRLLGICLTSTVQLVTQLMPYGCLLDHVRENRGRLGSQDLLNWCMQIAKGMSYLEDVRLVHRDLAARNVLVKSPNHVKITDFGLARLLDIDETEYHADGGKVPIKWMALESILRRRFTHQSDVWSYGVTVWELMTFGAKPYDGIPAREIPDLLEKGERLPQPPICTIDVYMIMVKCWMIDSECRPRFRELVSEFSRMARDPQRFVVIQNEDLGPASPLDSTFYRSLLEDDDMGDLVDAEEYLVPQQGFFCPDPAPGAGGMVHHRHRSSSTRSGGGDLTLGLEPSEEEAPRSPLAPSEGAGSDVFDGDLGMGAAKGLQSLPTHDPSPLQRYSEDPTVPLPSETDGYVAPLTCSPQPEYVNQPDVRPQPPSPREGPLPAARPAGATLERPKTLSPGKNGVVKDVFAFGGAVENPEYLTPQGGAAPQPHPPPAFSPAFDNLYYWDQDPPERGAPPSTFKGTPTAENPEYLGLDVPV
Measurement Notes: Inhibition of erbB2 expressed in Sf9 cells
For each record, write down the corresponding IC50.
Give bare numbers, in µM.

Provide IC50 values for the following items, in order.
1. COc1cc2ncnc(Nc3ccc(OC4CCN(C(=O)CC(C)(C)C)CC4)c(C)c3)c2cc1OC
2. Cc1cc(Nc2ncnc3cnc(N(C)C)cc23)ccc1OC1CCN(C(=O)CC(C)(C)C)CC1
3. COCC(=O)NCC#Cc1ccc2ncnc(Nc3ccc(Oc4cccc(C(=O)NC(C)(C)C)c4)c(C)c3)c2c1
4. Cc1cc(Nc2ncnc3cnc(N4CCN(C)CC4)cc23)ccc1Oc1ccc(C(=O)NCC(C)(C)C)cc1
5. COCCOc1cc2ncnc(Nc3ccc(OC4CCN(C(=O)CC(C)(C)C)CC4)c(C)c3)c2cc1OCCOC
6. COCCOc1ccc2ncnc(Nc3ccc(OC4CCN(C(=O)Nc5c(F)cccc5F)CC4)c(C)c3)c2c1
7. COc1cc2ncnc(Nc3ccc(OC4CCN(C(=O)Nc5c(F)cccc5F)CC4)c(C)c3)c2cc1OC

A)
0.1
0.051
0.018
0.13
0.26
0.027
0.019

Provide IC50 values for the following items, in order.
1. COCCOc1ccc2ncnc(Nc3ccc(OC4CCN(C(=O)CC(C)(C)C)CC4)c(C)c3)c2c1
2. Cc1cc(Nc2ncnc3ccc(OCCCN4CCOCC4)cc23)ccc1OC1CCN(C(=O)CC(C)(C)C)CC1
3. COCC(=O)NCC#Cc1ccc2ncnc(Nc3ccc(Oc4cccc(C(=O)NC5CCC5)c4)c(C)c3)c2c1
4. COc1ccc2ncnc(Nc3ccc(OC4CCN(C(=O)CC(C)(C)C)CC4)c(C)c3)c2c1
5. COc1ccc2ncnc(Nc3ccc(OC4CCN(C(=O)Nc5c(F)cccc5F)CC4)c(C)c3)c2c1
6. Cc1cc(Nc2ncnc3cnc(N(C)C)cc23)ccc1Oc1ccc(C(=O)NCC(C)(C)C)cc1

A)
1. 0.12
2. 0.075
3. 0.23
4. 0.096
5. 0.046
6. 0.048
